# Test system: HOP-62 NSCLC
# method: NCI-60 one-dose screen, 48 h (100 = growth as untreated, 0 = no growth, -100 = all killed)
# condition: 10 µM unless noted
About 83,000 compounds went through this panel and 20% of them were active in at least one assay; those are over-represented in the sample as a whole. Calls of active or inactive are those of the source. Rule for the calls: active = growth percent below 10; inactive = the rest.
metric: growth

1. CCOC(=O)/C(=C/c1ccccc1)C(=O)c1ccccc1; 74.9% (inactive)
2. [O-]/[N+](=C\C=C\c1ccccc1)c1ccccc1; 116% (inactive)
3. COc1ccc(-c2cnnn2-c2cc(OC)c3c(c2)OCO3)cc1; 30.2% (inactive)
4. CCCCCCCC/C=C\CCCCCCCCOc1ccccc1CC(=O)NCC[N+]1(C)CCCC1; 80.6% (inactive)
5. CC(=O)NCCSC(=O)C(=O)SCCNC(C)=O; 107% (inactive)
6. COc1ccc(/C=C2\NC(=S)NC2=O)cc1; 83.5% (inactive)
7. COc1ccc(-c2cn(-c3ccccc3)c(-c3ccccc3)n2)cc1OC; 102% (inactive)
8. O=C1CN(CO)C(=O)CN1CO; 106% (inactive)
9. CCN(CC)c1ccc(N=Nc2cc(Cl)ccc2Cl)c(NC(=O)CCC(=O)O)c1; 86.6% (inactive)
10. S=C1SCN(Cc2ccccc2)CN1Cc1ccco1; 85.3% (inactive)
11. CCC(C)(C)C(=O)O[C@H]1C[C@@H](C)C=C2C=C[C@H](C)[C@H](CC[C@@H]3C[C@@H](O)CC(=O)O3)[C@H]21; 80.7% (inactive)
